Entries and their measured IC50 follow.
molecular target: factor Xa (Homo sapiens); construct: tissue Octapharma; experiment: biochemical; conditions: factor Xa inhibition in citrate plasma (Octapharma), factor X activated by Russel viper venom, ChromozymX substrate, read at about 12 min
Sequence (P00742 235-488 limits assumed): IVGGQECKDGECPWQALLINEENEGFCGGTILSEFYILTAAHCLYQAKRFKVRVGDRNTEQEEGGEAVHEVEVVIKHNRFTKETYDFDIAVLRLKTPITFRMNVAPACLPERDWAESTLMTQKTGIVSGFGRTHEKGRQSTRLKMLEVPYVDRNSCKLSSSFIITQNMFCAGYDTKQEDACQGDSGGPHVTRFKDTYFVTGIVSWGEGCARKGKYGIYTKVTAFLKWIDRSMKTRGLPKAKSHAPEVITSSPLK
Sequence (P00742 41-179 limits assumed): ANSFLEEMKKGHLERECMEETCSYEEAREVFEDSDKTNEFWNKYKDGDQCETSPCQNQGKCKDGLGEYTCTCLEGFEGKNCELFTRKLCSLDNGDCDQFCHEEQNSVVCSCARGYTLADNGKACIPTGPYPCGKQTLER
Number only, in nM; omit the unit.

>>> print(df.to_string())
                    compoundstructurestring  assaymetric  endpointresult
0  COCc1cc(N2C[C@H](CNC(=O)c3ccc(Cl)s3)OC2=O)ccc1-n1cccc(CCN[C@H]2CC[C@H](O)CC2)c1=O         IC50              15
1  COc1cc(N2C[C@H](CNC(=O)c3ccc(Cl)s3)OC2=O)ccc1-n1cccc(CCN[C@H]2CC[C@H](O)CC2)c1=O         IC50              31
2  CCCc1cc(N2C[C@H](CNC(=O)c3ccc(Cl)s3)OC2=O)ccc1-n1cccc(OCCNCCO)c1=O         IC50              29
3  Cc1cc(N2C[C@H](CNC(=O)c3ccc(Cl)s3)OC2=O)cc(C)c1-n1cccc(CCNCCO)c1=O         IC50              29
4  COCc1cc(N2C[C@H](CNC(=O)c3ccc(Cl)s3)OC2=O)ccc1-n1cccc(CCNCCO)c1=O         IC50              11

IC50 for Cc1cc(N2C[C@H](CNC(=O)c3ccc(Cl)s3)OC2=O)ccc1-n1cccc(OCCN[C@H]2CC[C@H](O)CC2)c1=O ?
11

// query: COCc1cc(N2C[C@H](CNC(=O)c3ccc(Cl)s3)OC2=O)ccc1-n1cccc(CCNCCCO)c1=O
18

// query: COCc1cc(N2C[C@H](CNC(=O)c3ccc(Cl)s3)OC2=O)ccc1-n1cccc(CCN2CCN(C)CC2)c1=O
17

----------
target: thrombin (Homo sapiens, UniProt P00734); assay: Thrombin-inhibitory activity in plasma samples (ecarin, fluorogenic thrombin substrate); details: thrombin inhibition in citrate plasma (Octapharma), ecarin-stimulated, read at about 12 min
assayMetric: IC50 (nM)
Number only, in nM; omit the unit.

>>> df
                    compoundstructurestring  assaymetric  endpointresult
0  COCc1cc(N2C[C@H](CNC(=O)c3ccc(Cl)s3)OC2=O)ccc1-n1cccc(CCN[C@H]2CC[C@H](O)CC2)c1=O         IC50              24
1  COc1cc(N2C[C@H](CNC(=O)c3ccc(Cl)s3)OC2=O)ccc1-n1cccc(CCN[C@H]2CC[C@H](O)CC2)c1=O         IC50             143
2  Cc1cc(N2C[C@H](CNC(=O)c3ccc(Cl)s3)OC2=O)ccc1-n1cccc(OCCN[C@H]2CC[C@H](O)CC2)c1=O         IC50              34

IC50 for COCc1cc(N2C[C@H](CNC(=O)c3ccc(Cl)s3)OC2=O)ccc1-n1cccc(CCNCCO)c1=O ?
10

// query: COCc1cc(N2C[C@H](CNC(=O)c3ccc(Cl)s3)OC2=O)ccc1-n1cccc(CCNCCCO)c1=O
10

// query: Cc1cc(N2C[C@H](CNC(=O)c3ccc(Cl)s3)OC2=O)cc(C)c1-n1cccc(CCNCCO)c1=O
15

// query: COCc1cc(N2C[C@H](CNC(=O)c3ccc(Cl)s3)OC2=O)ccc1-n1cccc(CCN2CCN(C)CC2)c1=O
16

// query: CCCc1cc(N2C[C@H](CNC(=O)c3ccc(Cl)s3)OC2=O)ccc1-n1cccc(OCCNCCO)c1=O
36

Taken from patent US8383822B2.
